Values from patent US20260266833A1

target: T1, H3K27me3 peptide (Kme3 (trimethyl-lysine) at the 10th residue (KQLATKAARKme3SAPATGGVK); N-terminus biotin + aminohexanoic acid linker, or FITC at the N-terminus for fluorescence polarization); assay: fluorescence polarization, FITC-peptide 0.5 nM
T1 construct: Synthetic peptide (GenScript); One entry is used for the biotinylated and the FITC-labelled form
T1 peptide: KQLATKAARKSAPATGGVK
Parameter pKd: see the listing below.
Quick note: pKd means taking -log10 of the concentration in moles per liter.

Examples with answers:
Cbx7 Q9D chromodomain (tags removed) (designed binder, FP: His6 and Flag tags removed with TEV protease) SAIGEDVFAVESIRKKRVRKGKVEYLVKWKGWPPKYSTWEPEEHILDPRLVMAYEEKEERDRASGYRKRGPK :: 4.00
Cbx7.V1 chromodomain (tags removed) (designed binder, ITC and FP: His6 and Flag tags removed with TEV protease) SAIGDDIFAVESIRKKRVRKGKVEYLVKWEGWPLEYSTWEPEEHILDPRLVMAYEEKEERDRASGYRKRGPK :: 5.40
Cbx7.VD chromodomain (tags removed) (designed binder, also called Cbx7 Q9D/K33E) SAIGEDVFAVESIRKKRVRKGKVEYLVKWEGWPPKYSTWEPEEHILDPRLVMAYEEKEERDRASGYRKRGPK :: 5.30

input: Which value of pKd has been reported for Cbx7 K33E chromodomain (tags removed) (designed binder, FP: His6 and Flag tags removed with TEV protease) SAIGEQVFAVESIRKKRVRKGKVEYLVKWEGWPPKYSTWEPEEHILDPRLVMAYEEKEERDRASGYRKRGPK in the records?
output: 4.70
